Assay Procedure: small-molecule binders of probe aNOTCH2, primary screen, biochemical, small-molecule microarray, 635/667 nm fluorescence (AID 1121);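 also: score merges feature fluorescence read at 667 nm with its signal to noise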
Test Context: higher = more signal
Parameter: composite z-score. Scope: all listed entries.
Provide a numeric answer; units are not to be included.

Below, 4 compounds whose answers are already recorded.
Exercise: Any idea what its composite z-score is? The compound is C[C@H]1CC[C@H]2C(=O)O[C@H](COc3ccc(C(C)(C)C)cc3)CN2[C@@H]1c1ccc(Br)cc1
Solution: -0.123

Exercise: Any idea what its composite z-score is? The compound is COc1ccc(COC(=O)NN=C2C[C@@H](O)[C@@H](O)[C@@H]3[C@@H]4C(=O)N(c5cccc(Oc6ccccc6)c5)C(=O)[C@@H]4CC[C@@H]23)cc1
Solution: -0.149

Exercise: Any idea what its composite z-score is? The compound is CO[C@H]1COC(=O)CCC[C@@H](C)[C@H](OC)COC(=O)[C@@H]2CCCN2C(=O)CC=C[C@@H]1C
Solution: -0.132

Exercise: Any idea what its composite z-score is? The compound is COC(=O)C1=C(C)N(Cc2ccccc2)[C@]23O[C@](C(=O)OC)(C(=O)N2[C@@H]1c1ccccc1)C(C(=O)OC)=C3C(=O)OC
Solution: -0.0439

***
Exercise: Any idea what its composite z-score is? The compound is COC(=O)CC=C[C@@H](C)[C@@H](C=NO[C@H](C)c1cn([C@@H]2COC[C@H]2O)nn1)NS(=O)(=O)c1ccc(C)cc1
Solution: -0.0108

Exercise: Any idea what its composite z-score is? The compound is CC(C)=CCCC(C)=CCON=C1C[C@@H](O)[C@@H](O)[C@@H]2[C@@H]3C(=O)N(c4ccc(F)cc4F)C(=O)[C@@H]3CC[C@H]12
Solution: -0.0662

Exercise: Any idea what its composite z-score is? The compound is COC(=O)C=CCCc1coc(C=CCNC(=O)OC)n1
Solution: 0.16

----------
Assay Procedure: basal HepG2 mitochondrial membrane potential changes, profiling panel, cell-based, JC-1 fluorescence, 24 h, 100 nL compound (AID 1167); also: test concentration not given here
Test Context: higher = more signal
Parameter: z-score. Scope: all listed entries.

Exercise: Any idea what its z-score is? The compound is Cc1ccc(S(=O)(=O)N[C@H]2COC(=O)CC=C[C@H](C)[C@@H](NS(=O)(=O)c3ccc(C)cc3)COC(=O)CC=C[C@@H]2C)cc1
Solution: 0.477

Exercise: Any idea what its z-score is? The compound is CSCC[C@@H]1NC(=O)CC=C[C@@H](C)COC(=O)[C@@H](C)COC1=O
Solution: 0.852

Exercise: Any idea what its z-score is? The compound is C[C@H]1COC(=O)[C@@H]2CCCN2C(=O)[C@@H](C)COC(=O)[C@H](Cc2ccccc2)NC1=O
Solution: 0.278

***
Exercise: Any idea what its z-score is? The compound is COC(=O)NCC=Cc1nc(CCCO)co1
Solution: -0.64

Exercise: Any idea what its z-score is? The compound is C[C@@H]1NC(=O)[C@@H](C)COC(=O)[C@H](C)NC(=O)[C@@H](C)COC1=O
Solution: 0.503

Exercise: Any idea what its z-score is? The compound is CC(CCN1CCCCc2nc(C)c(C)cc21)=NOC[C@@H](C)[C@H](OCc1ccccc1)C(C)C
Solution: -0.728

----------
Assay Procedure: cell viability in Huh7 cells, primary screen, cytotoxicity control for HCV replication inhibitor project, CellTiter-Glo luminescence, basal, 48 h (AID 1143);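 also: Huh7 hepatoma cells carrying a hepatitis C replication reporter with no stimulus; test concentration not given here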
Test Context: Huh7 HCV replicon, higher = more signal, called active from +8 up or from −8 down
Measurement Type: z-score
Provide a numeric answer; units are not to be included.

Below, 2 compounds whose answers are already recorded.
Exercise: Any idea what its z-score is? The compound is CCOC(=O)[C@H](Cc1ccccc1)NC(=O)CCC1CC(OC(=O)NCc2ccc3c(c2)OCO3)CC2(CCCC(COC(=O)NCCc3ccccc3OC)O2)O1 (stereo partly drawn)
Solution: -0.415

Exercise: Any idea what its z-score is? The compound is C[C@H]1Cc2c(COc3ccccc3)nc3c(c2CO1)CN(CCOc1ccccc1)CC3
Solution: -0.491

***
Exercise: Any idea what its z-score is? The compound is CO[C@@H]1COC(=O)[C@H](CCSC)NC(=O)CC=C[C@@H](C)COC(=O)[C@H](C)NC(=O)CC=C[C@H]1C
Solution: 0.208

Exercise: Any idea what its z-score is? The compound is CC(C)=CCCC(C)=CCON=C1C[C@@H](O)[C@@H](O)[C@@H]2[C@@H]3C(=O)N(c4ccc(F)cc4F)C(=O)[C@@H]3CC[C@H]12
Solution: -5.27

Exercise: Any idea what its z-score is? The compound is CCOC(=O)C1=NO[C@@]2(C=C(Br)C3(OCCCO3)[C@H]3O[C@H]32)C1
Solution: 0.164

Exercise: Any idea what its z-score is? The compound is C#CCCCON=C1C[C@@H](O)[C@@H](O)[C@@H]2[C@@H]3C(=O)N(C(C)(C)C)C(=O)[C@@H]3CC[C@H]12
Solution: 0.0285

Exercise: Any idea what its z-score is? The compound is O=C1[C@H]2[C@H]3[C@H](O)[C@H](O)CC(=NOCc4ccccc4)[C@@H]3CC[C@H]2C(=O)N1c1ccc(F)cc1F
Solution: -1.69

Exercise: Any idea what its z-score is? The compound is CO[C@@H]1COC(=O)CC=C[C@@H](C)[C@@H]2C=C[C@H](O)[C@@H](COC(=O)CC=C[C@H]1C)O2
Solution: -0.256

----------
System Under Test: Alpha-bungarotoxin (Bungarus multicinctus)
Assay Procedure: alpha-bungarotoxin binders on microarray, profiling panel, artefact control for SMM control protein annotation, biochemical, small-molecule microarray, Alexa647 label, 635/667 nm fluorescence (AID 1117)
Test Context: alpha-BTX-A647 binding fluorescence, higher = more signal
Parameter: composite z-score. Scope: all listed entries.
Provide a numeric answer; units are not to be included.

Below, 5 molecules whose answers are already recorded.
Exercise: Any idea what its composite z-score is? The molecule is CCN1C(=O)[C@H]2[C@H]3[C@H](O)[C@H](O)CC(=O)[C@H]3CC[C@H]2C1=O
Solution: 0.113

Exercise: Any idea what its composite z-score is? The molecule is CO[C@H]1COC(=O)CCC[C@@H](C)[C@H](OC)COC(=O)[C@@H]2CCCN2C(=O)CC=C[C@@H]1C
Solution: 0.199

Exercise: Any idea what its composite z-score is? The molecule is CC(C)CON=C1C[C@@H](O)[C@@H](O)[C@@H]2[C@@H]3C(=O)N(C[C@@H]4CCCO4)C(=O)[C@@H]3CC[C@@H]12
Solution: 0.678

Exercise: Any idea what its composite z-score is? The molecule is CCC=CCCC(OC(=O)c1ccc(Br)cc1)C1=CCCCC1=O (stereo not given)
Solution: 0.654

Exercise: Any idea what its composite z-score is? The molecule is COC(=O)CC=C[C@@H](C)[C@H](OCc1cccc(-c2ccccc2)c1)C1CCCCC1
Solution: 1.9

***
Exercise: Any idea what its composite z-score is? The molecule is CCCNC(=O)OC[C@H]1O[C@H](CCON=C(C)C)C=C[C@@H]1Oc1ccc(OC)cc1
Solution: -0.132

Exercise: Any idea what its composite z-score is? The molecule is C#CCCCON=C1C[C@@H](O)[C@@H](O)[C@@H]2[C@@H]3C(=O)N(CC)C(=O)[C@@H]3CC[C@@H]12
Solution: 1.27

Exercise: Any idea what its composite z-score is? The molecule is CCOC(=O)[C@H](Cc1ccccc1)NC(=O)CCC1CC(OC(=O)NCc2cccc3ccccc23)CC2(CCCC(COC(=O)NCc3ccccc3)O2)O1 (stereo not given in full)
Solution: 0.713

Exercise: Any idea what its composite z-score is? The molecule is CCOC(=O)[C@H](Cc1ccccc1)NC(=O)CCC1CC(OC(=O)NCc2ccc3c(c2)OCO3)CC2(CCCC(COC(=O)NCCc3ccccc3OC)O2)O1 (stereo not given in full)
Solution: 1.11

Exercise: Any idea what its composite z-score is? The molecule is CCOC(=O)[C@H](CC(C)C)NC(=O)CCC1CC(OC(=O)NCc2cccc3ccccc23)CC2(CCCC(COC(=O)NCC3CCCCC3)O2)O1 (stereo not given in full)
Solution: 0.742

----------
System Under Test: Torsin-1A-interacting protein 1 (Homo sapiens) (UniProt Q5JTV8)
Sequence (Q5JTV8 whole entry, looked up): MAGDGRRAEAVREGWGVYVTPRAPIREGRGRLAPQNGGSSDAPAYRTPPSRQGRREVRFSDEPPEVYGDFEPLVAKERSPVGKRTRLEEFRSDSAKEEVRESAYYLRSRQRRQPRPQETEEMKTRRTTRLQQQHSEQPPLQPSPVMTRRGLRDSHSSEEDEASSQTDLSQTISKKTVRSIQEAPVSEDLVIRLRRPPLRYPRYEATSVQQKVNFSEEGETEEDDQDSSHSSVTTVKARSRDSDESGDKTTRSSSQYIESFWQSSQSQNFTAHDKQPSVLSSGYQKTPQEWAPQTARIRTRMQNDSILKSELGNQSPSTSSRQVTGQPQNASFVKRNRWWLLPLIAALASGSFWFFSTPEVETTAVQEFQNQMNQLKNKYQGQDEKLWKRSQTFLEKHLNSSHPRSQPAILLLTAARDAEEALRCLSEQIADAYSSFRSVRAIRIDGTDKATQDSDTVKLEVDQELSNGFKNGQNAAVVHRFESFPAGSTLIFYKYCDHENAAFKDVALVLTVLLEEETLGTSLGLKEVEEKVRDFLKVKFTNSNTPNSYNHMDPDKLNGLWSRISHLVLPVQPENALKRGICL
Assay Procedure: LAP1 binders from COS7 cell lysate, primary screen, small-molecule microarray, 635/667 nm fluorescence (AID 1116)
Test Context: COS7-hLAP1 lysate binding, 635 nm fluorescence, higher = more signal
Measurement Type: composite z-score

Exercise: Any idea what its composite z-score is? The molecule is CO[C@H]1COC(=O)[C@@H](C)COC(=O)[C@H](C)NC(=O)CC=C[C@H]1C
Solution: -0.15

Exercise: Any idea what its composite z-score is? The molecule is Cc1ccc(S(=O)(=O)N[C@H]2COC(=O)CC=C[C@H](C)[C@@H](NS(=O)(=O)c3ccc(C)cc3)COC(=O)CC=C[C@@H]2C)cc1
Solution: -0.129

***
Exercise: Any idea what its composite z-score is? The molecule is CC(C)CON=C1C[C@@H](O)[C@@H](O)[C@@H]2[C@@H]3C(=O)N(C4CCCCC4)C(=O)[C@@H]3CC[C@H]12
Solution: 0.792

Exercise: Any idea what its composite z-score is? The molecule is CCC=CCCC(OC(=O)c1ccc(Br)cc1)C1=CCCCC1=O (centres undefined)
Solution: 0.221

Exercise: Any idea what its composite z-score is? The molecule is CC(C)=CCCC(C)=CCON=C1C[C@@H](O)[C@@H](O)[C@@H]2[C@@H]3C(=O)N(c4ccc(F)cc4F)C(=O)[C@@H]3CC[C@@H]12
Solution: 1

Exercise: Any idea what its composite z-score is? The molecule is CCOC(=O)[C@H](CC(C)C)NC(=O)CCC1CC(OC(=O)NCCc2ccc(F)cc2)CC2(CCCC(COC(=O)NCC(c3ccccc3)c3ccccc3)O2)O1 (some centres undefined)
Solution: 0.145

Exercise: Any idea what its composite z-score is? The molecule is COC(=O)[C@H](C)NC(=O)CCC1CC(OC(=O)NCc2ccc3c(c2)OCO3)CC2(CCCC(COC(=O)NCC(c3ccccc3)c3ccccc3)O2)O1 (some centres undefined)
Solution: 0.587

Exercise: Any idea what its composite z-score is? The molecule is COC(=O)C1=C(C)N(Cc2ccccc2)[C@]23O[C@](C(=O)OC)(C(=O)N2[C@@H]1c1ccccc1)C(C(=O)OC)=C3C(=O)OC
Solution: 0.569

Exercise: Any idea what its composite z-score is? The molecule is CC(C)=CCCC(C)=CCON=C1C[C@@H](O)[C@@H](O)[C@@H]2[C@@H]3C(=O)N(C(C)(C)C)C(=O)[C@@H]3CC[C@H]12
Solution: 0.452

Exercise: Any idea what its composite z-score is? The molecule is CC(C)=CCCC(C)=CCON=C1C[C@@H](O)[C@@H](O)[C@@H]2[C@@H]3C(=O)N(Cc4ccccc4)C(=O)[C@@H]3CC[C@@H]12
Solution: 0.712
